tested on: Plasma; assay: Drug level in plasma of C57BL/6 mouse assessed as cis-4-((1-(5-(5-(trifluoromethyl)-1H-benzo[d]imidazol-2-yl)pyridin-2-yl)piperidin-4-yl)oxy)cyclohexanecarboxylic acid level at 10 mg/kg, po after 24 hrs; assay type: ADME, organism-based; set-up: dose 10 mg/kg, route oral; conditions: in vivo
measured-endpoint: concentration

Let me know recorded concentration for `O=C(O)[C@H]1CC[C@H](OC2CCN(c3ccc(-c4nc5cc(C(F)(F)F)ccc5[nH]4)cn3)CC2)CC1` , thanks.
< 10 nM

* * *

experiment: Plasma concentration in Sprague-Dawley rat at 3 mg/kg, po dosed 2 hrs before lipid challenge and measured at 4 hrs by lipid tolerance test; format: ADME, organism-based; set-up: dose 3 mg/kg, route oral
measured-endpoint: concentration at 4 h
Phrase the answer as number then unit, nothing more needed.

Let me know recorded concentration at 4 h for `O=C(O)[C@H]1CC[C@H](OC2CCN(c3ccc(-c4nc5cc(C(F)(F)F)ccc5[nH]4)cn3)CC2)CC1` , thanks.
58 nM
